meta.source: the nanobody polyreactivity screen of Harvey et al. (2022)

Procedure summary: yeast display, Sf9 membrane polyspecificity reagent, FACS + sequencing; frameworks hold sequencing errors
Measured quantity: polyreactivity (PSR sort gate)

Completed entries (count: 10):
Entry sequence: QVQLVESGGGLVQAGGSLRLSCAASGRIFDRNAMGWYRQAPGKERELVAAISSRGTSTYYADSVKGRFTISRDNAKNTVYLQMNSLKPEDTAVYYCAARPRYASDEFGYWGQGTQVTVSS
Measured quantity: polyreactivity (PSR sort gate)
Reported: low polyreactivity
//
Entry sequence: QVQLVESGGGLVQAGGSLRLSCAASGSIFDRNAMGWYRQAPGKERELVAAITSGGSTYYADSVKGRFTISRDNAKNTVYLQMNSLKAEDTAVYYCNADADPPVPLYYWGQGTQVTVSS
Measured quantity: polyreactivity (PSR sort gate)
Reported: low polyreactivity
//
Entry sequence: QVQLVESGGGLVQAGGSLRLSCAASGFTFYNNAMGWYRQAPGKERELVAVITSNGGRTYYADSVKGRFTISRDNAKNTVYLQMNSLKPEDTAVYYCAKDYKALYLYHYRISGGDVDYWGQGTQVTVSS
Measured quantity: polyreactivity (PSR sort gate)
Reported: low polyreactivity
//
Entry sequence: QVQLVESGGGLVQAGGSLRLSGAASGSIFNRNAMGWYRQAPGKESELVARISWTAGSTYYADSEKARFTISRDYAKNTVYLQMNSLKPEDTAVYYCNDVKGYYDLYDKFDYWGQGTQVTVSS
Measured quantity: polyreactivity (PSR sort gate)
Reported: low polyreactivity
//
Entry sequence: QVQLVESGGRLVQAGGSLRLSCAASGRIFDGNAMGWYRQAPGKERELVAAISWTGGSTYYADSVKGRFTISRDNAKNTVYLQMNSLKPEDTAVYYCAADSGWWLDQWSWYDYWGQGTQVTVSS
Measured quantity: polyreactivity (PSR sort gate)
Reported: low polyreactivity
//
Entry sequence: QVQLVESGGGLLQAGGSLRLSCAASGSTFKFNAMGWYRQAPRKERELVAAISNRGGTTYYADSVKGRFTISRDNAKNTVYFHMNSLKPEDTAVYYCAAGRVQSYYYWGQGTQVTVSS
Measured quantity: polyreactivity (PSR sort gate)
Reported: high polyreactivity
//
Entry sequence: QVQLVQSGGGLVQAGGSLRLSCAASGSIFGYYAKGWNRQAPGKERQLVAAIDSRGGSTYYADSVKGRFTISRDNEKNTVYLQMNSLKTEDTAVYYCAARLRYPRRGQGDNYRGQGTQVTVSS
Measured quantity: polyreactivity (PSR sort gate)
Reported: low polyreactivity
//
Entry sequence: QVQLVESGGGLVQAGGSLRLSCAASGSIFDYYALGWYRQAPGKERELVATITSGVSTYYADSVKGRFTISRDNAKNTVYLQMNSLKPEDTAVYYCARDYAKSQDLYKYDYWGQGTQVTLSS
Measured quantity: polyreactivity (PSR sort gate)
Reported: low polyreactivity
//
Entry sequence: QVQLVESGGGLVQAGGSLRLSCAASGSTFSRYAMGWYRQAPGKERELVAAISYSGDSTYYADSVKGRFTISRDYAKNTVYLQMNSLKPEDTAVYYCNVYSHYRGYYWGQGTQVTVSS
Measured quantity: polyreactivity (PSR sort gate)
Reported: high polyreactivity
//
Entry sequence: QVQLEESGGGLVQAGGSLRLSCAASGRTFTLNAMGWYRQAPGKEREFVAAISNSGVRTYYADSVKGRFTISRDNAKNTVYLQMNSLKPEDTAVYYCARTYQVGDSIDDYWGQGTQVTVSS
Measured quantity: polyreactivity (PSR sort gate)
Reported: low polyreactivity

// switching to the query sequence
Q) Let me know recorded polyreactivity (PSR sort gate) for "QVQLVESGGGLVQAGGSHRLSCAASGLTFDHYAMGWYRQAPGKERELVAAISRTGTRTYYADSVKERFTISRDNAKNTVYLQMNSLKPEDTAVYYCNAGTYWQGDSYDYWGQGTQVTVSS" , thanks.
A) low polyreactivity
